Target: Rat Striatal 5-HT6 Receptors (Rattus norvegicus, UniProt P31388)
Sequence (P31388 whole entry): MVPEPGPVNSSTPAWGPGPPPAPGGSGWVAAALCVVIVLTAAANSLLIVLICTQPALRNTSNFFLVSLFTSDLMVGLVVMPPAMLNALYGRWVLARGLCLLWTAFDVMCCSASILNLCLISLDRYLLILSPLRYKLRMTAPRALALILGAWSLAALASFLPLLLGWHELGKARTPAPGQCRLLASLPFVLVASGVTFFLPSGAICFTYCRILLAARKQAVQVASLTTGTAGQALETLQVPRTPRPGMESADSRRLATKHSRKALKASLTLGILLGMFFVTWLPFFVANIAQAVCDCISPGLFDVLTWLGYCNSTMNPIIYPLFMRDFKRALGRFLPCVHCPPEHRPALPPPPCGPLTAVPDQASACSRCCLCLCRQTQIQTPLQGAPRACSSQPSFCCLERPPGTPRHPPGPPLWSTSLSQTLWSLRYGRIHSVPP
parameter.measured: pKi
Units for pKi: none; it is -log10 of a concentration expressed in mol/L.

Entry O=S(=O)(Nc1cccc(Cl)c1)c1ccc2c(c1)CNCCO2 : pKi on Rat Striatal 5-HT6 Receptors (Rattus norvegicus, UniProt P31388) = 7.09
